Listed here are compounds together with their documented concentration.
- experiment-description: Drug concentration in brain of naive C57BL/6J mouse at 10 mg/kg, ip measured after 20 to 30 mins
- Format: ADME, organism-based
- settings: in vivo, time 20-30 min, read-out: Ct
# unit: nM | format: bare number

Example cases with answers are listed next.
Cc1ccc(-c2cnn(CC3CCCC3)c2)c(-c2ccc(N)c([N+](=O)[O-])c2)n1 : 982
Cc1ccc(-c2cnn(CC3CCCC3)c2)c(-c2ccc3c(c2)C(=O)N(C)C3)n1 : 481

**Query** Recorded concentration of Cc1ccc(-c2cnn(CC3CCCC3)c2)c(-c2ccc(F)c(F)c2)n1 , please.
**Result** 2140
